Tested on: Escherichia coli
Assay: Bactericidal activity against Escherichia coli NIHJ JC-2 preincubated for 1 min before addition of growth medium measured after 40 to 48 hrs
Format: functional
// reported log10(MBC) for each item listed
MEASURED_ATTRIBUTE: log10(MBC) (log10 of the value in µg/mL)

TEST_SMILES	READOUT_NUMBER
CC(=O)O.CCCCCCCCCNC1=NC(C)(C)NC(NCCc2ccccc2)=N1	1.10
CC(=O)O.CCCCCCCCNC1=NC(C)(C)NC(NCc2ccc(C(F)(F)F)cc2)=N1	0.49
CC(=O)O.CCCCCCCCNC1=NC(C)(C)NC(NCCCCCC)=N1	1.10
CC(=O)O.CCCCCCCCCCCCNC1=NC(C)(C)NC(NCC)=N1	1.10
CC(=O)O.CCCCCCCCCNC1=NC(C)(C)NC(NCc2ccc(C)cc2)=N1	0.80
CC(=O)O.CCCCCCCCCNC1=NC(C)(C)NC(NCc2ccccc2)=N1	0.80
CC(=O)O.CCCCCCCCNC1=NC(C)(C)NC(Nc2ccccc2)=N1	1.10
CC(=O)O.CCCCCCCCCNC1=NC(C)(C)NC(Nc2ccccc2)=N1	1.10
CC(=O)O.CCCCCCCCNC1=NC(C)(C)NC(NCc2ccccc2)=N1	1.10
CC(=O)O.CCCCCCCNC1=NC(C)(C)NC(NCCCCCCC)=N1	0.80
CC(=O)O.CCCCCCCCNC1=NC(C)(C)NC(NCCCC)=N1	1.70
CCCCCCCCCCNC1=NC(C)(C)NC(NCCc2ccc(OC)cc2)=N1.Cl	0.49
CC(=O)O.CCCCCCCNC1=NC(C)(C)NC(NCc2ccc(C)cc2)=N1	1.40

Values from ChEMBL document CHEMBL1143313
